# STUDY_SYSTEM: MGL (Rattus norvegicus)
# Construct: one g rat brain was homogenized using a Polytron homogenizer; from tissue; host or cells: rat brain homogenate
# PROCEDURE_DETAILS: 2-AG Accumulation Assay in rat brain homogenate
# Type: biochemical
# PROTOCOL_CONDITIONS: compound @1 µM, percent of vehicle, read-out: Rat Brain 2AG % VehCntrl (%) @1 µM
Catalogue of compounds with associated activity at 1 µM
# number only, unit % dropped from output

Cc1c(C(=O)N2CC(N3CC(NC(=O)c4nccs4)C3)C2)sc2cc(-c3ccccc3)ccc12 399

-- ask Give recorded activity at 1 µM. "O=C(NC1CN(C2CN(C(=O)c3ccc4c(ccn4-c4ccc(F)cc4F)c3)C2)C1)c1nccs1"
-- reply 353

-- ask Give recorded activity at 1 µM. "O=C(NC1CN(C2CN(C(=O)c3ccc4c(ccn4-c4ccccc4)c3)C2)C1)c1nccs1"
-- reply 441

====

Catalogue of compounds with associated Kd
# STUDY_SYSTEM: mutant MGL (Homo sapiens, UniProt Q99685, L169S/L176S)
# Construct: purified mutant MGL (mut-MGLL 11-313 L179S L186S)
# PROCEDURE_DETAILS: MGL ThermoFluor Assay - Mutant
# PROTOCOL_CONDITIONS: 0.07 mg/ml mutant MGL, 100 μM ANS, pH 7.0
# number only, unit nM dropped from output

Consider the following illustrative entries.
O=C(c1sc2cc(-c3ccccc3)ccc2c1-c1ccccc1)N1CC(N2CC(N3Cc4ccccc4C3=O)C2)C1 1.3
O=C(c1sc2cc(C(F)(F)F)ccc2c1Cl)N1CC(N2CC(N3Cc4ccccc4C3=O)C2)C1 2.7
O=C(NC1CN(C2CN(C(=O)c3ccc(-c4ccc(C(F)(F)F)s4)cc3)C2)C1)c1nccs1 14
O=C(c1ccc2oc(-c3ccccc3)nc2c1)N1CC(N2CC(N3Cc4ccccc4C3=O)C2)C1 100
O=C(NC1CN(C2CN(C(=O)c3ccc(Oc4ccccc4)cc3)C2)C1)c1ccccc1 833

-- ask Give recorded Kd. "Cc1cc(-c2ccc(C(F)(F)F)cc2)ccc1C(=O)N1CC(N2CC(N3Cc4scnc4C3=O)C2)C1"
-- reply 3640

-- ask Give recorded Kd. "CS(=O)(=O)c1cccc(-c2ccc(C(=O)N3CC(N4CC(NC(=O)c5nccs5)C4)C3)cc2)c1"
-- reply 215

-- ask Give recorded Kd. "O=C(NC1CN(C2CN(C(=O)c3ccc(-c4ccc(C(F)(F)F)cc4)cc3)C2)C1)c1cscn1"
-- reply 86

====

# STUDY_SYSTEM: mutant MGL (mut-MGLL 11-313 L179S L186S) (Homo sapiens, UniProt Q99685, L169S/L176S)
# Construct: purified mutant MGL (mut-MGLL 11-313 L179S L186S)
# Sequence (Q99685 1-303 L169S/L176S): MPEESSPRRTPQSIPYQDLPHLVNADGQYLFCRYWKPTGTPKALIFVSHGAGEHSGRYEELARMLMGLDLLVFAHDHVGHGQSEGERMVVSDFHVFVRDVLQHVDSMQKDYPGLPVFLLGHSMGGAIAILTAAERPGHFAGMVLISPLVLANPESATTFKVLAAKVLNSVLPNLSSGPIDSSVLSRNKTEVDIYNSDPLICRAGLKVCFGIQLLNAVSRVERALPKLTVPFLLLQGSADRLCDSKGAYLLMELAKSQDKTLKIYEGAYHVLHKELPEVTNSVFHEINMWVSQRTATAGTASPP
# PROCEDURE_DETAILS: MGL Enzyme Activity Assay, purified mutant MGL, 4MU-B substrate
# PROTOCOL_CONDITIONS: mutant MGL 5 nM, 4MU-B 10 μM, 37° C.; read-out: MGL mutant inh IC50
ASSAY_METRIC: IC50 (nM)
# number only, unit nM dropped from output

MOLECULE	VALUE_UNITS	IC50
O=C(NC1CN(C2CN(C(=O)c3ccc4nc(-c5ccc(C(F)(F)F)cc5)oc4c3)C2)C1)c1nccs1 [Cpd 30]	nM	264

-- ask Give recorded IC50. O=C(c1ccc2nc(-c3ccc(Cl)cc3)oc2c1)N1CC(N2CC(N3Cc4ccccc4C3=O)C2)C1 [Cpd 88]
-- reply 96

-- ask Give recorded IC50. O=C(NC1CN(C2CN(C(=O)c3ccc(-c4cccc(C(F)(F)F)c4)cc3)C2)C1)c1nccs1 [Cpd 5]
-- reply 7

-- ask Give recorded IC50. O=C(c1ccc(-c2ccccc2)cc1)N1CC(N2CC(N3Cc4ccccc4C3=O)C2)C1 [Cpd 92]
-- reply 242

====

# STUDY_SYSTEM: wild type MGL (wt-MGLL 6H-11-313) (Homo sapiens, UniProt Q99685)
Values of IC50 strictly less than 20 nM map to condition met, and values of at least 20 nM map to condition not met.

-- ask Is the reported IC50 for "O=C(NC1CN(C2CN(C(=O)c3sc4cc(C(F)(F)F)ccc4c3Cl)C2)C1)c1nccs1" strictly below 20 nM?
-- reply condition met

====

Catalogue of compounds with associated pIC50
# STUDY_SYSTEM: mutant MGL (mut-MGLL 11-313 L179S L186S) (Homo sapiens, UniProt Q99685, L169S/L176S)
# Construct: purified mutant MGL (mut-MGLL 11-313 L179S L186S)
# Sequence (Q99685 1-303 L169S/L176S): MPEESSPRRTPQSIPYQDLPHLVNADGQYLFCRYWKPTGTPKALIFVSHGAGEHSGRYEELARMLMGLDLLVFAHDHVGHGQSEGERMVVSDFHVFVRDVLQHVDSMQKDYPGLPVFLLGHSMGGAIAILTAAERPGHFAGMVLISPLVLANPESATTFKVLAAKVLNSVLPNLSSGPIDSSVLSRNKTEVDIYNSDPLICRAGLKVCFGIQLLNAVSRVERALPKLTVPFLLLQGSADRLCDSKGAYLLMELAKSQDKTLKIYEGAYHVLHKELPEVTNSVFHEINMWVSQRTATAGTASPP
# PROCEDURE_DETAILS: MGL Enzyme Activity Assay, purified mutant MGL, 4MU-B substrate
# PROTOCOL_CONDITIONS: mutant MGL 5 nM, 4MU-B 10 μM, 37° C.; read-out: MGL mutant inh IC50
# Experimental: All rate-based assays were performed in black 384-well polypropylene PCR microplates (Abgene) in a total volume of 30 μL. […] The fluorescence change due to 4MU-B cleavage was monitored with excitation and emission wavelengths of 335 and 440 nm, respectively, and a bandwidth of 10 nm (Safire^2, Tecan) at 37° C. for 5 min. […]
pIC50 here is simply -log10 of the concentration when that concentration is written in mol/L.

COMPOUND	pIC50
O=C(NC1CN(C2CN(C(=O)c3ccc4nc(-c5ccccc5)sc4c3)C2)C1)c1cscn1	7.07
O=C(NC1CN(C2CN(C(=O)c3ccc(Oc4ccccc4)cc3)C2)C1)c1ccccc1	5.56

-- ask Give recorded pIC50. "O=C(NC1CN(C2CN(C(=O)c3cc4ccc(Br)cc4s3)C2)C1)c1nccs1"
-- reply 7.03

-- ask Give recorded pIC50. "O=C(NC1CN(C2CN(C(=O)c3ccc4c(-c5ccccc5)cccc4c3)C2)C1)c1ccccc1"
-- reply 6.81

-- ask Give recorded pIC50. "O=C(NC1CN(C2CN(C(=O)c3ccc(Cc4ccccc4)cc3)C2)C1)c1nccs1"
-- reply 7.82

-- ask Give recorded pIC50. "CN(C(=O)c1cscn1)C1CN(C2CN(C(=O)c3cc4ccc(C(F)(F)F)cc4s3)C2)C1"
-- reply 5.09

-- ask Give recorded pIC50. "CS(=O)(=O)c1cccc(-c2ccc(C(=O)N3CC(N4CC(NC(=O)c5nccs5)C4)C3)cc2)c1"
-- reply 7.23

====

Catalogue of compounds with associated activity at 10 µM
# STUDY_SYSTEM: MGL (Rattus norvegicus)
# Construct: one g rat brain was homogenized using a Polytron homogenizer; from tissue; host or cells: rat brain homogenate
# PROCEDURE_DETAILS: 2-AG Accumulation Assay in rat brain homogenate
# Format: biochemical
# PROTOCOL_CONDITIONS: compound @10 µM, percent of vehicle, read-out: Rat Brain 2AG % VehCntrl (%) @10 µM
# number only, unit % dropped from output

Consider the following illustrative entries.
COMPOUND	activity at 10 µM [%]
O=C(NC1CN(C2CN(C(=O)c3ccc4c(ccn4-c4ccc(C(F)(F)F)cc4)c3)C2)C1)c1nccs1 [Cpd 1]	639
O=C(c1ccc2nc(-c3ccc(Cl)cc3)oc2c1)N1CC(N2CC(N3Cc4ccccc4C3=O)C2)C1 [Cpd 88]	294
Cc1c(C(=O)N2CC(N3CC(NC(=O)c4nccs4)C3)C2)sc2ccc(Cl)cc12 [Cpd 15]	611
O=C(NC1CN(C2CN(C(=O)c3ccc4nc(-c5ccccc5)oc4c3)C2)C1)c1nccs1 [Cpd 17]	486
O=C(c1cc2ccc(Br)cc2s1)N1CC(N2CC(N3Cc4ccccc4C3=O)C2)C1 [Cpd 87]	250

-- ask Give recorded activity at 10 µM. O=C(NC1CN(C2CN(C(=O)c3ccc(Cc4ccccc4)cc3)C2)C1)c1nccs1 [Cpd 10]
-- reply 659

-- ask Give recorded activity at 10 µM. O=C(NC1CN(C2CN(C(=O)c3ccc(Cc4ccc(C(F)(F)F)cc4)cc3)C2)C1)c1nccs1 [Cpd 16]
-- reply 123

-- ask Give recorded activity at 10 µM. O=C(c1ccc(Cc2cccc(C(F)(F)F)c2)cc1)N1CC(N2CC(N3Cc4ccccc4C3=O)C2)C1 [Cpd 86]
-- reply 447

-- ask Give recorded activity at 10 µM. O=C(NC1CN(C2CN(C(=O)c3ccc4cc(-c5ccccc5)ccc4c3)C2)C1)c1nccs1 [Cpd 21]
-- reply 581

-- ask Give recorded activity at 10 µM. O=C(NC1CN(C2CN(C(=O)c3ccc(-c4ccc(C(F)(F)F)s4)cc3)C2)C1)c1nccs1 [Cpd 9]
-- reply 160

-- ask Give recorded activity at 10 µM. O=C(NC1CN(C2CN(C(=O)c3ccc(-c4ccc(C(F)(F)F)cc4)cc3)C2)C1)c1nccs1 [Cpd 12]
-- reply 557

-- ask Give recorded activity at 10 µM. O=C(c1ccc2c(ccn2-c2ccccc2)c1)N1CC(N2CC(N3Cc4ccccc4C3=O)C2)C1 [Cpd 85]
-- reply 693

Reference source: patent US8759333B2
